All values here come from patent US20250136687A1.

Measured EC50 accompanies every entry in the list below.
- system: T1, human CD3 on the cell surface (Jurkat cells, expanded human T cells, Jurkat-Lucia NFAT cells, human PBMC) (human, UniProt P07766 23-207; P04234 22-171; P09693 23-182)
- T1 construct: whole, on cells; Endogenous CD3 within the TCR-CD3 complex on cells (also zeta chains and TCR); the cell type is named under assay
- T1 sequence (P07766 23-207, chain 1 of 3): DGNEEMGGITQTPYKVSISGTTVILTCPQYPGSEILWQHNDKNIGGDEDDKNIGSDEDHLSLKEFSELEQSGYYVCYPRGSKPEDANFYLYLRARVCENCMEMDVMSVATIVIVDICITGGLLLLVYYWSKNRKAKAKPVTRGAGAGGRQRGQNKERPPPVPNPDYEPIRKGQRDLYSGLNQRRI
- T1 sequence (P04234 22-171, chain 2 of 3): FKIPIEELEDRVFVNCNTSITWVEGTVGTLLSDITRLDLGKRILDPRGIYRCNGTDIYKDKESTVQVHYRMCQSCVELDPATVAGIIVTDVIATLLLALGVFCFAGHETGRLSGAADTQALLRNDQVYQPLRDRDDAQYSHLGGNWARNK
- T1 sequence (P09693 23-182, chain 3 of 3): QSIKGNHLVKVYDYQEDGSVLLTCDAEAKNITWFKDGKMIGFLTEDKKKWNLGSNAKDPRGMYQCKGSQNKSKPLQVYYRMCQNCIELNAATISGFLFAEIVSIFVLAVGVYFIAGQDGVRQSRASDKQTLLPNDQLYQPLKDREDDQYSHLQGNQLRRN
- procedure_details: FACS, Jurkat cells

binder: 40G5c-hIgG1 (antibody, V domains shown) VH: EVQLVQSGAEVKKPGASVKVSCKASGYTFTNYYIHWVRQAPGQGLEWIGWIYPGDGNTKYNEKFKGRATLTADTSTSTAYLELSSLRSEDTAVYYCARDSYSNYYFDYWGQGTLVTVSS VL: DIVMTQSPDSLAVSLGERATINCKSSQSLLNSRTRKNYLAWYQQKPGQPPKLLIYWASTRESGVPDRFSGSGSGTDFTLTISSLQAEDVAVYYCTQSFILRTFGQGTKVEIKR
EC50 (nM): 0.1
--
binder: 5-7.13 human-murine chimeric antibody (antibody, human IgG1, kappa, V domains shown, Human IgG1 chimera) VH: QVQLQQPGTELVKPGASVKLSCKASGYTFTSYWVHWVKQRPGQGLEWIGNINPSDGVTNYNEKFKSRATLTVDKSSSTAYMQLSSLTSEDSAVYYCTRDAYGQYYFDDWGQGTTLTVSS VL: DIVMSQSPSSLVVSAGEKVTMSCKSSQSLLNSRTRKNYLAWYQQKPGQSPKLLIYWASVRDSGVPDRFTGSGSGTDFTLTISNVQAEDLAVYYCIQSYYLRTFGGGTILEIKR
EC50 (nM): 0.06
--
binder: 6-44.5 human-murine chimeric antibody (antibody, human IgG1, kappa, V domains shown, Human IgG1 chimera) VH: EVQLQQSGPELVKPGASVKMSCKASGHTFTSHIMHWVKQKPGQGLEWIGYINPNNDRTEYSEKFKGKATLTSDKSSSTAYMELSSLTSEDSAVYYCAGEAYYSNSLYAMDYWGQGTSVTVSS VL: DIVMSQSPSSLAVSAGEKVTMSCKSSQSLFNSRTRKNYLAWYQQKPGQSPELLIYWASTRESGVPVRFTGSGSGTDFTLTISSVQAEDLAVYYCKQSYYLRTFGGGTKLEVKR
EC50 (nM): 0.15
--
binder: 6-35.22 human-murine chimeric antibody (antibody, human IgG1, kappa, V domains shown, Human IgG1 chimera) VH: EVKLVESGGGLVQPGASLSLSCAASGFTFTDYYMSWVRQPPGKALEWLAMSRNKAKGHTIEYSSSVKGRFTISRDNSQSILYLQMNALRAEDSATYYCARDTYESYDGYFDVWGAGTTVIVSS VL: DIVMSQSPSSLAVSAGETVTMSCKSSQSLFNSRSRKNYLAWYQQKPGQTPKLLIYWASIRESGVPDRFTGSGSGTDFTLTISSVQAEDLAVYYCKQSYYLYTFGSGTKLEIKR
EC50 (nM): 8.3
--
binder: 5-40.21 human-murine chimeric antibody (antibody, human IgG1, kappa, V domains shown, Human IgG1 chimera) VH: QVQLQQPGSELVRPGASVKLSCKASGYTFTSYWMHWVKQRPGQGLEWIGNTYPGSGSTNYDEKFKSKATLTVDSSSSTAYMQLSSLTSEDSAVYYCTRDRYGVYYFDYWGQGTTLTVSS VL: DIVMSQSPSSLAVSAGEKVTMSCKSSQSLLNSRTRKNYLAWYQQKPGQSPKLLIYWASTRESGVPDRFSGSGSGTDFTLTISSVQAEDLAVYYCTQSYNLRTFGGGTKLEIKR
EC50 (nM): 0.44
